- System: CCRF-CEM
- measurement-notes: Cytotoxicity against human CCRF-CEM cells
- Assay type: functional
- recorded-conditions: read-out: ED50 (the source's name)
readout-kind: log10(EC50) (log10 of the value in µg/mL)

1. C=C1C(=O)O[C@H]2[C@H]1C[C@H](O)[C@@]1(C)O[C@@H]1CC[C@@]1(C)O[C@@H]21: 0.39
2. C=C1C(=O)O[C@H]2[C@H]1C[C@@H](O)[C@@]1(C)O[C@@H]1CC[C@@]1(C)O[C@@H]21: 0.16
3. C=C1C(=O)O[C@H]2[C@H]1C[C@@H](O)/C(C)=C/CC[C@@]1(C)O[C@@H]21: -0.08
4. C=C1C(=O)O[C@H]2[C@H]1CC(=O)/C(C)=C/CC[C@@]1(C)O[C@@H]21: -1.30
5. C=C1C(=O)O[C@H]2[C@H]1C[C@H](O)/C(C)=C/CC[C@@]1(C)O[C@@H]21: -0.10

----------
- Test system: SW-620
- measurement-notes: Cytotoxicity against human SW620 cells
- Assay type: functional
- recorded-conditions: read-out: ED50 (the source's name)
# log10 of EC50 per entry
readout-kind: log10 of EC50 (log10 of the value in µg/mL)

1) C=C1C(=O)O[C@H]2[C@H]1C[C@@H](O)/C(C)=C/CC[C@@]1(C)O[C@@H]21: 0.03
2) C=C1C(=O)O[C@H]2[C@H]1C[C@H](O)/C(C)=C/CC[C@@]1(C)O[C@@H]21: -0.26
3) C=C1C(=O)O[C@H]2[C@H]1C[C@@H](O)[C@@]1(C)O[C@@H]1CC[C@@]1(C)O[C@@H]21: 0.57
4) C=C1C(=O)O[C@H]2[C@H]1C[C@H](O)[C@@]1(C)O[C@@H]1CC[C@@]1(C)O[C@@H]21: 0.58
5) C=C1C(=O)O[C@H]2[C@H]1CC(=O)/C(C)=C/CC[C@@]1(C)O[C@@H]21: -0.68

----------
- System: OVCAR-8
- measurement-notes: Cytotoxicity against human OVCAR8 cells
- Assay type: functional
- recorded-conditions: read-out: ED50 (the source's name)
EC50 under 4 µg/mL gets Condition met, anything at or over 4 µg/mL gets Condition not met.

1) C=C1C(=O)O[C@H]2[C@H]1C[C@H](O)[C@@]1(C)O[C@@H]1CC[C@@]1(C)O[C@@H]21: Condition not met
2) C=C1C(=O)O[C@H]2[C@H]1CC(=O)/C(C)=C/CC[C@@]1(C)O[C@@H]21: Condition met
3) C=C1C(=O)O[C@H]2[C@H]1C[C@H](O)/C(C)=C/CC[C@@]1(C)O[C@@H]21: Condition not met
4) C=C1C(=O)O[C@H]2[C@H]1C[C@@H](O)[C@@]1(C)O[C@@H]1CC[C@@]1(C)O[C@@H]21: Condition not met

----------
- System: Malme-3M
- measurement-notes: Cytotoxicity against human MALME-3M cells
- Format: functional
- recorded-conditions: read-out: ED50 (the source's name)
Entries whose EC50 is below 2 µg/mL take y; entries at or above 2 µg/mL take n.

1. C=C1C(=O)O[C@H]2[C@H]1C[C@H](O)/C(C)=C/CC[C@@]1(C)O[C@@H]21: y
2. C=C1C(=O)O[C@H]2[C@H]1CC(=O)/C(C)=C/CC[C@@]1(C)O[C@@H]21: y
3. C=C1C(=O)O[C@H]2[C@H]1C[C@@H](O)/C(C)=C/CC[C@@]1(C)O[C@@H]21: y
4. C=C1C(=O)O[C@H]2[C@H]1C[C@@H](O)[C@@]1(C)O[C@@H]1CC[C@@]1(C)O[C@@H]21: n
5. C=C1C(=O)O[C@H]2[C@H]1C[C@H](O)[C@@]1(C)O[C@@H]1CC[C@@]1(C)O[C@@H]21: n

----------
- System: SF-268
- measurement-notes: Cytotoxicity against human SF268 cells
- Type: functional
- recorded-conditions: read-out: ED50 (the source's name)
readout-kind: EC50 (µg/mL)

1) C=C1C(=O)O[C@H]2[C@H]1C[C@H](O)/C(C)=C/CC[C@@]1(C)O[C@@H]21: 7.76
2) C=C1C(=O)O[C@H]2[C@H]1CC(=O)/C(C)=C/CC[C@@]1(C)O[C@@H]21: 1.73
3) C=C1C(=O)O[C@H]2[C@H]1C[C@H](O)[C@@]1(C)O[C@@H]1CC[C@@]1(C)O[C@@H]21: 12.1
4) C=C1C(=O)O[C@H]2[C@H]1C[C@@H](O)[C@@]1(C)O[C@@H]1CC[C@@]1(C)O[C@@H]21: 13.5
5) C=C1C(=O)O[C@H]2[C@H]1C[C@@H](O)/C(C)=C/CC[C@@]1(C)O[C@@H]21: 10.3
